For each entry below, report its clearance value.
ASSAY_EXPLANATION: Pharmacokinetics in Sprague-Dawley rats (i.v. and oral)
Type: in vivo
TEST_SETTINGS: rat, plasma, iv, 0.5 mg/kg
Experimental: Compound Ib and PF-04136309 were dosed intravenously at 0.5 mg/kg and orally at 2 mg/kg, in aqueous hydroxypropyl methylcellulose. Blood samples were collected at predetermined time points after each dosing and the corresponding plasma concentrations of Compound Ib and PF-04136309 were analyzed using an LC-MS/MS method. Plasma concentration-time curves were constructed and the corresponding pharmacokinetic parameters were derived using non-compartmental analysis. […]
Returns: string containing the number followed by the unit.

What the record says about Cc1cnc(C(=O)c2ccnc3[nH]ccc23)c(NS(=O)(=O)c2ccc(Cl)c(C(F)(F)F)c2)c1 [Compound Ib] : clearance is 11.5 mL/min/kg

What the record says about O=C(NCC(=O)N1CC[C@H](N[C@H]2CC[C@@](O)(c3ccc(-c4ncccn4)cn3)CC2)C1)c1cccc(C(F)(F)F)c1 [PF-04136309, reference compound] : clearance is 71.1 mL/min/kg

###

ASSAY_EXPLANATION: Pharmacokinetics of compound Ib in male beagle dogs (i.v. and oral)
Type: in vivo
TEST_SETTINGS: male, beagle, plasma, po; Dog; mean, N = 3; dosed at 2 mg/kg
MEASUREMENT_KIND: bioavailability (%)
Note: unit % is implicit; provide only the numeric part.

What the record says about "Cc1cnc(C(=O)c2ccnc3[nH]ccc23)c(NS(=O)(=O)c2ccc(Cl)c(C(F)(F)F)c2)c1" : bioavailability is 143

###

ASSAY_EXPLANATION: Pharmacokinetics in Sprague-Dawley rats (i.v. and oral)
Assay type: in vivo
TEST_SETTINGS: rat, plasma, po, 2 mg/kg
For each entry below, report its AUC value.
Note: unit ng·h/mL is implicit; provide only the numeric part.

What the record says about O=C(NCC(=O)N1CC[C@H](N[C@H]2CC[C@@](O)(c3ccc(-c4ncccn4)cn3)CC2)C1)c1cccc(C(F)(F)F)c1 [PF-04136309, reference compound] : AUC is 111

What the record says about Cc1cnc(C(=O)c2ccnc3[nH]ccc23)c(NS(=O)(=O)c2ccc(Cl)c(C(F)(F)F)c2)c1 [Compound Ib] : AUC is 3910
